These entries and their values trace back to patent US10125134B2.

tested on: NCI-H358 cells (express KRas G12C), Phospho-ERK; assay: Cellular inhibition of KRas G12C: Phospho-ERK in NCI-H358 cells; type: cell-based; conditions: pERK(Thr202/Tyr204) normalized with GAPDH; NCI-H358 cells; 3 hours; read-out: IC50
pIC50: −log10 of the molar value.
I'd appreciate it if you could supply pIC50 values for the items below.

Known results for molecules:
• C=CC(=O)N1CCN(c2nc(OC[C@@H]3C[C@@H](OC)CN3C)nc3c2CCN(c2cccc4ccccc24)C3)CC1CC#N (some centres unmarked) = 6.00 to 10.00
• C/C=C/C(=O)N1CCN(c2nc(OC[C@@H]3CCCN3C)nc3c2CCN(c2cccc4ccccc24)C3)CC1CC#N (some centres unmarked) = 6.00 to 10.00

Provide reported pIC50 for each item, in the same order as listed.
1. C=CC(=O)N1CCN(c2nc(OC[C@@H]3CCCN3C)nc3c2CCN(c2ccnc4ccccc24)C3)CC1CC#N (some centres unmarked) [Example 295]
2. C=CC(=O)N1CCN(c2nc(OC[C@@H]3CCCN3C)nc3c2CCN(c2cccc4c(F)cccc24)C3)CC1CC#N (some centres unmarked)
3. C=CC(=O)N1CCN(c2nc(OC[C@@H]3CCCN3C)nc3c2CCN(c2cccc4cnccc24)C3)CC1CC#N (some centres unmarked)
4. C=CC(=O)N1CCN(c2nc(OC[C@@H]3CCN(C)C3)nc3c2CCN(c2ccccc2C(F)(F)F)C3)CC1CC#N (some centres unmarked)
5. C=CC(=O)N1CCN(c2nc(OC[C@@H]3CCCN3C)nc3c2CCN(c2cccc4ncccc24)C3)CC1CC#N (some centres unmarked)
6. C=CC(=O)N1CCN(c2nc(OC[C@@H]3CCCN3C)nc3c2CCN(c2cccc(Cl)c2C(F)(F)F)C3)CC1CC#N (some centres unmarked)

Data returned:
< 6.00
6.00 to 10.00
< 6.00
6.00 to 10.00
< 6.00
6.00 to 10.00

---

test system: NCI-H358 cells (express KRas G12C), Phospho-ERK; experiment: Cellular inhibition of KRas G12C: Phospho-ERK in NCI-H358 cells; format: cell-based; settings: Homo sapiens, NCI-H358, 3 h, pERK(Thr202/Tyr204) normalized with GAPDH; NCI-H358 cells; 3 hours; read-out: IC50
I'd appreciate it if you could supply IC50 values for the items below.

- C=CC(=O)N1CCN(c2nc(OC[C@@H]3CCN(C)C3)nc3c2CCN(c2cc(O)cc4ccccc24)C3)CC1CC#N (stereo partly shown): 0.0001 to 1 µM
- C=CC(=O)N1CCN(c2nc(OC(C)CN(C)C)nc3c2CCN(c2cccc4ccccc24)C3)CC1 (stereo not shown): > 1 µM
- C=CC(=O)N1CCN(c2nc(OC[C@@H]3CCCN3C)nc3c2CCN(c2cccc4ccccc24)C3)[C@H](C)C1: > 1 µM

Let us move to another entry and its IC50.
Data request: Quick one: IC50 of C=CC(=O)N1CCN(c2nc(OC[C@@H]3CCCN3C)nc3c2CCN(c2ccccc2Cl)C3)CC1CC#N (stereo partly shown) ?
Data returned: 0.0001 to 1 µM

---

system: NCI-H358 cells (express KRas G12C), Phospho-ERK; assay: Cellular inhibition of KRas G12C: Phospho-ERK in NCI-H358 cells; assay type: cell-based; settings: Homo sapiens, NCI-H358, 3 h, pERK(Thr202/Tyr204) normalized with GAPDH; NCI-H358 cells; 3 hours; read-out: IC50
readout: IC50

Known results for compounds:
- C=CC(=O)N1CCN(c2nc(OCCCN3C[C@@H]4C[C@H]3CO4)nc3c2CCN(c2cccc4cccc(Cl)c24)C3)C[C@@H]1CC#N: 0.0001 to 1 µM
- C=CC(=O)N1CCN(c2nc(OC[C@@H]3C[C@@H](O)CN3C)nc3c2CCN(c2cccc4ccccc24)C3)C[C@@H]1CC#N: 0.0001 to 1 µM
- C=CC(=O)N1CCN(c2nc(N3CCCC(N(C)C)C3)nc3c2CCN(c2cccc4ccccc24)C3)C[C@@H]1CC#N (stereo partly drawn): 0.0001 to 1 µM
- C=CC(=O)N1CCN(c2nc(OCCCN(C)C)nc3c2CCN(c2cc(O)cc4ccccc24)C3)CC1: > 1 µM
- C=CC(=O)N1CCN(c2nc(OC[C@H]3C[C@H](O)CN3C)nc3c2CCN(c2cccc4ccccc24)C3)C[C@@H]1CC#N: 0.0001 to 1 µM

Let us move to another entry and its IC50.
Data request: Quick one: IC50 of C=CC(=O)N1CCN(c2nc(OCC3COCCN3C)nc3c2CCN(c2cc(O)cc4ccccc24)C3)CC1 (stereo not drawn) ?
Data returned: > 1 µM

---

target: KRas G12C (Homo sapiens, UniProt P01116, C118S/C51S/C80L/G12C); experiment: KRas G12C Modification Assay (LCMS detection of covalent adduct); format: binding; settings: normalized percent of control; tested at 5 μM concentration for 3 hours
Counter-ions that a name gives are not always drawn.
readout: POC

Known results for molecules:
• C=CC(=O)N1CCN(c2nc(OC[C@@H]3CCCN3C)nc3c2CCN(c2c(C)ccc(F)c2C)C3)C[C@@H]1CC#N = C (“C”>50% POC)
• C=CC(=O)N1CCN(c2nc(OC[C@@H](O)CN3CCOCC3)nc3c2CCN(c2cc(O)cc4ccccc24)C3)CC1 (single isomer, unassigned) = C (“C”>50% POC)
• C=CC(=O)N1CCN(c2nc(O[C@H](C)CN(C)C)nc3c2CCN(c2c(C)cccc2O)C3)CC1 = A (“A”≤25% POC)
• C=CC(=O)N1CCN(c2nc(OCCN(CC)CC)nc3c2CCN(c2ccccc2C(F)(F)F)C3)CC1CC#N (stereo not shown) [Example 284] = C (“C”>50% POC)
• C=CC(=O)N1CCN(c2nc(OCC3CCN(CC(=O)N(C)C)C3)nc3c2CCN(c2cc(O)cc4ccccc24)C3)CC1 (stereo not shown) = C (“C”>50% POC)

Provide reported POC for each item, in the same order as listed.
1. C=CC(=O)N1CCN(c2nc(OCCCN3CCOCC3)nc3c2CCN(c2c(C)ccc4[nH]ncc24)C3)CC1
2. C=CC(=O)N1CCN(c2nc(OCCN3CCS(=O)(=O)CC3)nc3c2CCN(c2cc(O)cc4ccccc24)C3)CC1 [Example 33, trifluoroacetate]

Data returned:
1. C (“C”>50% POC)
2. B (“B”>25% POC−≤50% POC)

Provide reported POC for each item, in the same order as listed.
1. C=CC(=O)N1CCN(c2nc(OC[C@@H]3CCCN3C)nc3c2CCN(c2cncc4ccccc24)C3)CC1CC#N (stereo partly shown) [Example 260]
2. C=CC(=O)N1CCN(c2nc(OCCN3CCC[C@H](F)C3)nc3c2CCN(c2cc(O)cc4ccccc24)C3)CC1
3. C=CC(=O)N1CCN(c2nc(O[C@H](C)CN(C)C)nc3c2CCN(c2c(C)ccc4[nH]ncc24)C3)CC1

Data returned:
C (“C”>50% POC)
C (“C”>50% POC)
B (“B”>25% POC−≤50% POC)

Provide reported POC for each item, in the same order as listed.
1. C=CC(=O)N1CCN(c2ncnc3c2CCN(c2cncc4ccccc24)C3)CC1
2. C=CC(=O)N1CCN(c2nc(OC[C@@H]3CCCN3C)nc3c2CCN(c2cccc4ccccc24)C3)CC1COC (stereo partly shown) [Example 256]
3. C=CC(=O)N1C[C@H]2CC[C@@H](C1)N2c1nc(OC(C)CN(C)C)nc2c1CCN(c1cc(O)cc3ccccc13)C2 (stereo partly shown)

Data returned:
1: A (“A”≤25% POC); 2: C (“C”>50% POC); 3: A (“A”≤25% POC)

---

Molecular target: KRas G12C (Homo sapiens, UniProt P01116, C118S/C51S/C80L/G12C)
Test: KRas G12C Modification Assay (LCMS detection of covalent adduct)
Format: binding
Settings: normalized percent of control; tested at 5 μM concentration for 3 hours
Experimental: A 10 μL aliquot of each protein solution was then transferred to a 384 well microtiter plate. Initial compound stocks were generated at fifty times their desired final assay concentration in DMSO. […] Final data analysis was a multistep process in the Spotfire® data analysis software package. Briefly, each protein mass was calculated as a percent of the total signal of that sample, that percentage was then normalized to the percentage of signal of the protein in the absence of reactive compounds. […]
readout: POC

- C=CC(=O)N1CCN(c2nc(OC[C@@H]3CCCN3C)nc3c2CCN(c2cccc(F)c2C)C3)C[C@@H]1CC#N: C (“C”>50% POC)
- C=CC(=O)N1CCN(c2nc(OC[C@@H]3CC(F)(F)CN3C)nc3c2CCN(c2cccc4ccccc24)C3)C[C@@H]1CC#N: C (“C”>50% POC)
- C=CC(=O)N1CCN(c2nc(OC[C@@H]3CCCN3C)nc3c2CCN(c2cccc4ccc(Cl)cc24)C3)CC1CC#N (stereo partly shown) [Example 253]: C (“C”>50% POC)
- CN(C)C/C=C/C(=O)N1CCN(c2nc(OC[C@@H]3CCCN3C)nc3c2CCN(c2cccc4ccccc24)C3)C[C@@H]1CC#N: C (“C”>50% POC)
- C=CC(=O)N1CCN(c2nc(OC[C@@H]3CCCN3C)nc3c2CCN(c2cccc4ccncc24)C3)C[C@@H]1CC#N: C (“C”>50% POC)
- C=CC(=O)N1CCN(c2nc(N3CCC(N(C)C)CC3)nc3c2CCN(c2cc(O)cc4ccccc24)C3)CC1: B (“B”>25% POC−≤50% POC)
- CC#CC(=O)N1CCN(c2nc(OC[C@@H]3CCCN3C)nc3c2CCN(c2cccc(C)c2C)C3)C[C@@H]1CC#N: C (“C”>50% POC)
- C=CC(=O)N1CCN(c2nc(OC[C@@H]3CCCN3C)nc3c2CCN(c2cccc4cccc(CC)c24)C3)C[C@@H]1CC#N: C (“C”>50% POC)
- C=CC(=O)N1CCN(c2nc(O[C@H](C)CN(C)C)nc3c2CCN(c2cccc4ccccc24)C3)CC1: A (“A”≤25% POC)
- C=CC(=O)N1CCN(c2nc(OC[C@@H]3CCCN3CC)nc3c2CCN(c2cccc4ccccc24)C3)CC1CC#N (stereo partly shown): C (“C”>50% POC)

Provide reported POC for each item, in the same order as listed.
1. C=CC(=O)N1CCN(c2nc(OCCCO)nc3c2CCN(c2cccc4ccccc24)C3)CC1CC#N (stereo not shown)
2. C=CC(=O)N1CCN(c2ncnc3c2CC(C)N(c2cc(O)cc4ccccc24)C3)CC1 (stereo not shown)
3. C=CC(=O)N1CCN(c2nc(OC[C@@H]3CCCN3C(C)C)nc3c2CCN(c2cccc4ccccc24)C3)C[C@@H]1CC#N
4. C=CC(=O)N1CCN(c2nc(OCCCN3CCOCC3)nc3c2CCN(c2cc(C(F)F)cc4ccccc24)C3)CC1

Data returned:
C (“C”>50% POC)
B (“B”>25% POC−≤50% POC)
C (“C”>50% POC)
A (“A”≤25% POC)

Provide reported POC for each item, in the same order as listed.
1. C=CC(=O)N1CCN(c2nc(OC[C@@H]3CCCN3C)nc3c2CCN(c2cccc(C)c2C(F)(F)F)C3)C[C@@H]1CC#N
2. C=CC(=O)N1CCN(c2nc(OC[C@H]3CN(C)C(C)(C)CO3)nc3c2CCN(c2cccc4ccccc24)C3)C[C@@H]1CC#N

Data returned:
1. C (“C”>50% POC)
2. C (“C”>50% POC)
